test system: SU-DHL-8; assay: In vitro antiproliferative activity, resazurin cell viability; assay type: cell-based; conditions: Homo sapiens, B lymphocyte, large cell lymphoma, 72 h of treatment, mean ± SEM
Kindly supply the reported IC50 values for the records listed here.
Number only, in µM; omit the unit.

Query: IC50; subject: Cc1cccc(C)c1NC(=O)c1cc(/C=C/c2ccccc2)nc2ccccc12 [4d]
6.53

Data request, read-out IC50, for O=C(Nc1ccc(Cl)cc1)c1cc(/C=C/c2ccc(Cl)cc2)nc2ccccc12 [4af]
4.45

IC50 lookup needed for COc1cc(NC(=O)c2cc(/C=C/c3ccccc3)nc3ccccc23)cc(OC)c1OC [4e] , thanks.
6.61

Entry O=C(Nc1ccc([N+](=O)[O-])c(C(F)(F)F)c1)c1cc(/C=C/c2ccc(Cl)cc2)nc2ccccc12 [4w] : reported IC50 = ?
8.25

---

tested on: VL51; test: Antiproliferative activity on lymphoma-derived cell lines, resazurin; format: cell-based; conditions: Homo sapiens, splenic B-cell lymphoma, 72 h of treatment, mean ± SEM
Exercise: for every item that follows, state its recorded IC50.

Reported IC50, compound `COc1cc(/C=C/c2cc(C(=O)Nc3c(C)cccc3C)c3ccccc3n2)cc(OC)c1OC` : ____
> 10 µM

Value lookup for IC50; key = `O=C(Nc1ccc(Cl)cc1)c1cc(/C=C/c2ccccc2[N+](=O)[O-])nc2ccccc12`
> 10 µM

Look at this compound and give its reported IC50. `COc1cc(/C=C/c2cc(C(=O)Nc3ccc([N+](=O)[O-])cc3)c3ccccc3n2)cc(OC)c1OC`
> 10 µM

Quick check: IC50 of `O=C(Nc1ccc([N+](=O)[O-])cc1)c1cc(/C=C/c2ccccc2)nc2ccccc12` ?
1.03 µM

---

Test system: panel of five tumor cell lines (HD-MB03, RPMI-8402, SU-DHL-8, A549, MDA-MB-231)
Assay: Antiproliferative activity, range over the panel of five tumor cell lines
Type: cell-based
Details: Homo sapiens; range over the active cell lines of the five-line panel; 72 h
Experimental: The synthesized quinoline derivatives 4a–z and 4aa–ah were evaluated in vitro for their antiproliferative activity against a panel of five tumor cell lines (HD‐MB03, medulloblastoma; RPMI‐8402, T‐lymphoblastic leukemia; SU‐DHL‐8, B lymphocyte, large cell lymphoma; A549, non‐small cell lung cancer; MDA‐MB‐231, triple‐negative breast cancer) (Table 2). […] Replacing the 4‐Cl group with a trifluoromethyl group (4ac) reduced antiproliferative activity. […]
Measured attribute: IC50

Name the recorded IC50 for `O=C(Nc1ccc(Cl)cc1)c1cc(/C=C/c2ccccc2[N+](=O)[O-])nc2ccccc12` .
1.33 to 6.92 µM

Recorded IC50 of `O=C(Nc1ccc([N+](=O)[O-])c(C(F)(F)F)c1)c1cc(/C=C/c2ccccc2)nc2ccccc12` , please.
3.2 to 8.97 µM

// returns reported IC50 for input `O=C(Nc1ccc([N+](=O)[O-])c(C(F)(F)F)c1)c1cc(/C=C/c2ccc(Cl)cc2)nc2ccccc12`
3.2 to 8.97 µM

Form field: reported IC50 of `O=C(Nc1ccc(C(F)(F)F)cc1)c1cc(/C=C/c2ccc(Cl)c(Cl)c2)nc2ccccc12`
3.2 to 8.97 µM

---

tested on: panel of five tumor cell lines (HD-MB03, RPMI-8402, SU-DHL-8, A549, MDA-MB-231); assay: Antiproliferative activity, range over the panel of five tumor cell lines; type: cell-based; details: Homo sapiens; range over the active cell lines of the five-line panel; 72 h
pIC50: −log10 of the molar value.
Measured attribute: pIC50

Quick check: pIC50 on panel of five tumor cell lines (HD-MB03, RPMI-8402, SU-DHL-8, A549, MDA-MB-231), item `O=C(Nc1ccc(C(F)(F)F)cc1)c1cc(/C=C/c2ccc(Cl)cc2)nc2ccccc12` ?
5.05 to 5.49

Entry `Cc1cccc(/C=C/c2cc(C(=O)Nc3ccc(C(F)(F)F)cc3)c3ccccc3n2)c1` , system panel of five tumor cell lines (HD-MB03, RPMI-8402, SU-DHL-8, A549, MDA-MB-231): what pIC50 was measured?
5.05 to 5.49

API: value(readout=pIC50, system=panel of five tumor cell lines (HD-MB03, RPMI-8402, SU-DHL-8, A549, MDA-MB-231)) for record `O=C(Nc1ccc(C(F)(F)F)cc1)c1cc(/C=C/c2ccccc2)nc2ccccc12`
5.05 to 5.49

---

I'd appreciate it if you could supply IC50 values for the items below.
test system: SU-DHL-8; assay: In vitro antiproliferative activity, resazurin cell viability; type: cell-based; conditions: Homo sapiens, B lymphocyte, large cell lymphoma, 72 h of treatment, mean ± SEM
Numbers only here, please. The scale is µM.

Bench note: what IC50 did `COc1cc(/C=C/c2cc(C(=O)Nc3ccccc3)c3ccccc3n2)cc(OC)c1OC` show?
5.33

Fill in: IC50 of `O=C(Nc1ccc(C(F)(F)F)cc1)c1cc(/C=C/c2ccccc2)nc2ccccc12` is ___
7.09

Name the reported IC50 value associated with the molecule `COc1ccc(/C=C/c2cc(C(=O)Nc3ccc(Cl)cc3)c3ccccc3n2)cc1`
4.67

Fill in the blank: the reported IC50 of `COc1cc(/C=C/c2cc(C(=O)Nc3ccc(C(F)(F)F)cc3)c3ccccc3n2)cc(OC)c1OC` is ____.
2.13

Return reported IC50; argument: `O=C(Nc1ccc(Cl)cc1)c1cc(/C=C/c2ccccc2)nc2ccccc12`
7.8

Consider the molecule shown here: `O=C(Nc1ccc(C(F)(F)F)cc1)c1cc(/C=C/c2ccc(Cl)cc2)nc2ccccc12` What is its recorded IC50?
4.77

Which IC50 value is on record for `Cc1cccc(/C=C/c2cc(C(=O)Nc3ccc(C(F)(F)F)cc3)c3ccccc3n2)c1` ?
3.25

Value lookup for IC50; key = `Cc1cccc(NC(=O)c2cc(/C=C/c3ccccc3)nc3ccccc23)c1`
5.05

Endpoint output: IC50 of `O=C(Nc1ccc(Cl)cc1)c1cc(/C=C/c2ccc(Cl)c(Cl)c2)nc2ccccc12` . Value?
3.49

Item `COc1cc(/C=C/c2cc(C(=O)Nc3c(C)cccc3C)c3ccccc3n2)cc(OC)c1OC` has what recorded IC50?
0.46

For the molecule `COc1cc(/C=C/c2cc(C(=O)Nc3cccc(Cl)c3)c3ccccc3n2)cc(OC)c1OC` , what IC50 is on record?
4.46

Consider the molecule `COc1cc(/C=C/c2cc(C(=O)Nc3ccc([N+](=O)[O-])cc3)c3ccccc3n2)cc(OC)c1OC` and give its measured IC50.
1.37

Given the molecule `O=C(Nc1ccc([N+](=O)[O-])c(C(F)(F)F)c1)c1cc(/C=C/c2ccccc2)nc2ccccc12` , what is its reported IC50?
3.86

Can you look up the measured IC50 of `COc1cc(/C=C/c2cc(C(=O)Nc3ccc(Cl)cc3)c3ccccc3n2)cc(OC)c1OC` for me?
4.61

Entry under review: `COc1cc(/C=C/c2cc(C(=O)Nc3cc(OC)c(OC)c(OC)c3)c3ccccc3n2)cc(OC)c1OC` . Reported IC50?
2.09

---

system: SU-DHL-1; experiment: Antiproliferative activity on lymphoma-derived cell lines, resazurin; format: cell-based; conditions: Homo sapiens, histiocytic large cell lymphoma, 72 h of treatment, mean ± SEM
Give measured IC50 for each item. Keep answers brief.
Form entry: value (µM) — number only.

I'd like to know its IC50. The compound in question is `O=C(Nc1ccc(Cl)cc1)c1cc(/C=C/c2ccccc2[N+](=O)[O-])nc2ccccc12`
4.9

What value of IC50 has been reported for the following compound? `O=C(Nc1ccc([N+](=O)[O-])cc1)c1cc(/C=C/c2ccccc2)nc2ccccc12`
2.32

---

Exercise: for every item that follows, state its recorded pIC50.
System: SU-DHL-8
Assay: In vitro antiproliferative activity, resazurin cell viability
Type: cell-based
Details: Homo sapiens, B lymphocyte, large cell lymphoma, 72 h of treatment, mean ± SEM
Description: To test the newly synthesized compounds, various human cell lines were employed. […] Fluorescence was measured using a Spark 10 M microplate reader (Tecan Group Ltd., Männedorf, Switzerland) with excitation at 535 nm and emission at 600 nm. […] To test the newly synthesized compounds, various human cell lines were employed. […] Fluorescence was measured using a Spark 10M microplate reader (Tecan Group Ltd., Männedorf, Switzerland) with excitation at 535 nm and emission at 600 nm. […]
The meaning of pIC50 here: minus log10 of the concentration in molar units.

Dear colleague, I am looking for the recorded pIC50 of the following compound: O=C(Nc1ccc(C(F)(F)F)cc1)c1cc(/C=C/c2ccc(Cl)c(Cl)c2)nc2ccccc12 [4ab]
5.18

Consider the compound shown here: O=C(Nc1ccc([N+](=O)[O-])cc1)c1cc(/C=C/c2ccccc2)nc2ccccc12 [4i] What is its recorded pIC50?
5.79

Recorded pIC50 of O=C(Nc1ccc(Cl)cc1)c1cc(/C=C/c2ccccc2[N+](=O)[O-])nc2ccccc12 [4ah] , please.
5.67

Record request: pIC50 value, item COc1cc(/C=C/c2cc(C(=O)Nc3cccc(C)c3)c3ccccc3n2)cc(OC)c1OC [4l]
5.53

Look at this compound and give its reported pIC50. O=C(Nc1cccc(Cl)c1)c1cc(/C=C/c2ccccc2)nc2ccccc12 [4f]
5.08
